assay: qHTS assay for small molecules that induce genotoxicity in human embryonic kidney cells expressing luciferase-tagged ATAD5 (AID 651632); details: HEK293T ATAD5-luciferase induction, 16 h; series mostly up to 83.3 µM; further: nearly all actives have a fitted effect of over 15% in size
Inconclusive results are not listed. The source made the active and inactive calls. The call rests on the fitted dose curve; in most records, active means well fitted activation curve with a large enough effect in the repeat runs; inconclusive means weak or mixed curves; inactive means no such curve, though single readings can be large or run the other way.
Possible outcomes: yes for active, no for inactive

molecule	classification
O=C(O)c1cc(N=Nc2ccc([N+](=O)[O-])cc2)ccc1O	yes
Cc1cc(C(C)(C)C)cc(C)c1CC1=NCCN1	no
CCCC[P+](C)(CCCC)CCCC	no
C[C@@H](O)[C@H](N)C(=O)O	no
COC1=C(OC)C(=O)C(CCCCCCCCCCO)=C(C)C1=O	no
O=C(Nc1ccc2c(O)c(N=Nc3ccc(N=Nc4ccc(S(=O)(=O)O)cc4)cc3)c(S(=O)(=O)O)cc2c1)c1ccccc1	no
CC(C)(C)c1ccc(C(O)CCCN2CCC(C(O)(c3ccccc3)c3ccccc3)CC2)cc1 (centres undefined)	no
CCCCCCCCCCC[C@@H](C[C@@H]1OC(=O)[C@H]1CCCCCC)OC(=O)[C@H](CC(C)C)NC=O	no
CC(=O)CC(=O)Nc1ccc(S(=O)(=O)O)cc1	no
[Cu+]	no
CNc1ccc([N+](=O)[O-])cc1	no
CCN(CC)C(=O)c1cc(S(=O)(=O)Cc2ccccc2)c(N2CCC(c3ccccc3)CC2)cc1N(CC)CCN(C)C	no
CCCCCCCCCCCCCCCC[N+](C)(C)CC	no
CCCCCCCC	no
C=CCn1c(=O)n(CC=C)c(=O)n(CC=C)c1=O	no
C=C(C)C(=O)OCCCCCCCCCC	no
CCO[C@@H]1O[C@H](C(COCc2ccccc2)OCc2ccccc2)[C@H](OCc2ccccc2)[C@H]1O (some centres undefined)	no
[Cl][Pt-2]([Cl])([Cl])[Cl]	no
CCCC1CCC(=O)CC1	no
